METHOD NOTES: chemical genetic growth profiling, strain panel (AID 1159580);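 also: tested at 20 µM; growth read once vehicle control cultures reached saturation at 30 °C; lower values mean less growth of the strain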
RUN PARAMETERS: S. cerevisiae deletion strains, growth OD, locus YLR403W, strain SFP1
Hit rate of the full screen: of about 5,500 compounds, about 2,000 (36%) were called active. Another 18% or so got no clear call; they are omitted. Rule as the data show it: active = normalized growth mostly below about 0.91 (no sharp cut-off); inconclusive = no clear call, values can overlap the other calls; inactive = mostly above about 0.92. This is one part of the list.
In this exercise, the only acceptable responses are TRUE = active, FALSE = inactive

Record excerpt, results attached:
COMPOUND	LABEL VALUE
O=C(CCSc1cccs1)Nc1cccc(C(F)(F)F)c1	FALSE
Cc1cc(C(=O)O/N=C(/N)c2ccc(C(C)(C)C)cc2)no1	FALSE
COc1ccccc1C(C[N+](=O)[O-])c1c(N)n(C)c(=O)n(C)c1=O (stereo unspecified)	TRUE
CC1(C)C/C(=N/Nc2ccc(C(F)(F)F)cc2)c2cc(C(C)(C)C)c(O)c(O)c2O1	FALSE
Nc1cc(-c2ccc(OC(F)(F)F)cc2)nn1-c1ccc(Cl)c(Cl)c1	FALSE

Continue with the compound presented below.
*Q* Answer briefly: the call reported for Cc1nc(C(F)(F)F)c(C(=O)O/N=C(/N)c2ccc(Cl)cc2)s1 in this assay.
*A* FALSE
